methodSummary: tim23-1 mutant yeast growth inhibitors, confirmation, luminescence, single concentration (AID 463218);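 note: temperature-sensitive tim23-1 mutant grown at 25 °C; 0% = DMSO wells with yeast and 100% = medium wells without yeast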
cond: S. cerevisiae tim23-1 growth, BacTiter-Glo luminescence, 24 h; at 20 µM; stronger effect = higher value
Out of some 4,400 compounds screened, about 3,700 (84%) were called active. So high a share suggests a set chosen from earlier hits. A selection follows.
measuredMetric: inhibition

smilesrecord=COc1ccc(/C=C2/C(=O)N(c3ccccc3)N=C2C)c(OC)c1 endpointvalue="49.5% (active)"
smilesrecord=COc1ccc(-c2nc3cc(C)ccn3c2NC2CCCCC2)cc1SC1CCCCC1 endpointvalue="48.6% (active)"
smilesrecord=CC(=NCc1ccco1)C1=C(O)c2ccccc2C1=O endpointvalue="50.4% (active)"

---

methodSummary: tim23-1 mutant yeast growth inhibitors, confirmation, luminescence, single concentration (AID 463218);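 note: temperature-sensitive tim23-1 mutant grown at 25 °C; 0% = DMSO wells with yeast and 100% = medium wells without yeast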
cond: S. cerevisiae tim23-1 growth, BacTiter-Glo luminescence, 24 h; at 20 µM
About 3,700 (84%) of roughly 4,400 compounds were called active.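 Rule for the calls: active = inhibition above about 39% in either of two replicate wells at 20 µM (limit read from the data); inactive = the rest.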 So high a share suggests a set chosen from earlier hits. These entries were drawn from the full list.
Labels: active, inactive

molecule=COc1ccc(CNC(=O)/C(C#N)=C/c2cccc(OC)c2OC)cc1 labelvalue=active
molecule=O=[N+]([O-])c1ccc(C=Nc2ccc(Cl)cc2Cl)s1 labelvalue=active
molecule=CC(=O)Oc1ccc(N(C(C)=O)S(=O)(=O)c2ccc3ccccc3c2)cc1Br labelvalue=active
molecule=COc1cc(/C=C2/C(=O)ON=C2C)ccc1OCc1ccccc1F labelvalue=active
molecule=O=C(N/N=C\c1cccc(Br)c1)c1ccccc1-n1cccc1 labelvalue=active
molecule=Cc1cccc(-c2nc(Nc3ccc(O)cc3)c3ccccc3n2)c1 labelvalue=inactive
molecule=O=C1C=C(c2cccc(Cl)c2O)C[C@@H](c2ccc(F)cc2)C1 labelvalue=active
molecule=c1ccc(-c2nc(NCc3ccco3)c3ccccc3n2)cc1 labelvalue=active
molecule=Cc1cc(C)c(S(=O)(=O)c2ccccc2)c(OC(=O)c2c(F)cccc2Cl)n1 labelvalue=active
molecule="CCCc1[nH]nc2c1C(c1ccc(Br)s1)C(C#N)=C(N)O2 (stereo unspecified)" labelvalue=active
molecule=CCc1ccccc1NC(=O)CN(c1ccc(OC)cc1OC)S(=O)(=O)c1ccccc1[N+](=O)[O-] labelvalue=inactive
molecule=COc1cc(Br)cc(/C=N/c2ncn[nH]2)c1O labelvalue=active
molecule="O=C1CC(Sc2ncn[nH]2)C(=O)N1c1ccccc1 (stereo unspecified)" labelvalue=inactive
molecule=Cc1ccc(Oc2cnn(-c3ccccc3)c(=O)c2Br)cc1 labelvalue=active
molecule=CN(C(=O)CC(NC(=O)c1ccccc1)(c1ccccc1)c1ccccc1)c1ccccc1 labelvalue=active
molecule=Cc1cc(Nc2ccccc2)n(C(=O)c2ccc(N)cc2)n1 labelvalue=active
molecule=Oc1c(Cl)cc(Cl)c(Cl)c1Cc1c(O)c(Cl)cc(Cl)c1Cl labelvalue=active
molecule=O=C(/C=C/c1ccc(Cl)c([N+](=O)[O-])c1)c1cccnc1 labelvalue=active
molecule=CCCNc1ncnc2sc(C)c(C)c12 labelvalue=inactive
molecule=Oc1ccccc1-c1cc(-c2ccc(Cl)cc2)n[nH]1 labelvalue=inactive
molecule=Cc1cccc(NC(=S)Nc2ccc(Cl)c(Cl)c2)c1 labelvalue=active
molecule=N#C/C(=C\c1cccnc1)C(=O)Nc1ccc(SC(F)F)cc1 labelvalue=active
molecule=COc1cccc(C2Nc3cccc4cccc(c34)N2)c1 labelvalue=active
molecule=O=C(c1cc(-c2cccc(O)c2)on1)N1CCc2ccccc2C1 labelvalue=active
molecule=FC(F)(F)c1cccc(Nc2ncnc3ccccc23)c1 labelvalue=inactive
molecule="COc1ccc(NC(=O)/C(Cl)=C(/Cl)S(=O)Cc2ccc(C)cc2)cn1 (stereo unspecified)" labelvalue=inactive
molecule=COc1cc(/C=N/Nc2nc3ccccc3s2)ccc1O labelvalue=inactive
molecule=CCOc1ccccc1/C=c1\sc2nc(-c3ccco3)nn2c1=O labelvalue=active
molecule=CNC(=O)/C(C#N)=C/c1c(F)cccc1Cl labelvalue=active
molecule=O=C(COC(=O)c1ccc(O)cc1O)c1ccc2c(c1)OCCO2 labelvalue=inactive
molecule=O=c1nc2s/c(=C\c3ccco3)c(=O)n2nc1Cc1ccccc1 labelvalue=inactive
molecule=O=c1c2ccccc2[nH]c(=S)n1CCN1CCC(=C(c2ccc(F)cc2)c2ccc(F)cc2)CC1 labelvalue=active
molecule=Cc1cccc(NC(=O)c2nc(S(=O)(=O)Cc3ccccc3)ncc2Cl)c1 labelvalue=inactive
molecule=O=C(NCc1ccc2c(c1)OCO2)c1c(O)nc2sccn2c1=O labelvalue=active
molecule="CC1(C)C2CCC1(C)C(OC(=O)c1ccc(O)cc1)C2 (stereo unspecified)" labelvalue=active
molecule="O=C1C(=O)N(CC2COc3ccccc3O2)c2ccccc21 (stereo unspecified)" labelvalue=active
molecule="O=C(N[C@H]1C/C=C\\C(c2cccc(F)c2)N(Cc2ccccc2)C(=O)C1)OCC1c2ccccc2-c2ccccc21 (stereo partly specified)" labelvalue=active
molecule=O=Cc1cn(-c2ccccc2)nc1-c1ccccn1 labelvalue=active
molecule=O=C(N/N=C/C=C/c1ccco1)c1cccs1 labelvalue=active
molecule=CC(C)NC(=O)/C(C#N)=C\c1ccc(N(C)C)c(Br)c1 labelvalue=active
molecule=O=C(Cc1c(F)cccc1Cl)Nc1ncc([N+](=O)[O-])s1 labelvalue=active

Where these numbers come from: PubChem BioAssay AID463218
